# testSystem: T1, human AMHRII (anti-Mullerian hormone receptor type 2) (human, UniProt Q16671 18-573)
# T1 construct: whole, on cells; also called AMHR2; human AMHR2
# T1 sequence (looked up): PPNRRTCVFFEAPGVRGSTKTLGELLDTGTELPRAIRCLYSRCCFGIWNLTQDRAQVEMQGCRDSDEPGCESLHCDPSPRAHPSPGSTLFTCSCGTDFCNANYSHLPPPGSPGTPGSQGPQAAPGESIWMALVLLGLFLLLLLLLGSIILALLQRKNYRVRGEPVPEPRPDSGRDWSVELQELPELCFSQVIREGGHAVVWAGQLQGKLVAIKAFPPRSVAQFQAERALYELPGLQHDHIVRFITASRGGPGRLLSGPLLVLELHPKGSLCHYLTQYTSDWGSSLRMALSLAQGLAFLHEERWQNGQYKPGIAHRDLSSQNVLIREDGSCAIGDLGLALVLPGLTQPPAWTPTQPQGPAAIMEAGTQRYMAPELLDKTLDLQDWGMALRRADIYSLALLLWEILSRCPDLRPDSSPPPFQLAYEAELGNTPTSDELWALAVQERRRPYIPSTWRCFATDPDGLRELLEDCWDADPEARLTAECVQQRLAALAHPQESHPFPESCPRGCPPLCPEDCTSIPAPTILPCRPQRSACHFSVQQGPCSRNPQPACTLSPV
# assayComment: FACS on CHO-K1 cells over-expressing human AMHR2
Some binders, each annotated with its measured Top (MFI).
measure: Top (MFI)

INSERT INTO measurements (binder, valuemeasured) VALUES
  ('31D9B3 VH1.2-VL2.1 hIgG1 (antibody, V domains shown, Humanized, PTM de-risked, human IgG1; also called 31D9B3 VH1.2-VL2.1 hlgG1) VH: QVQLVQSGAEVKKPGASVKVSCKASGYTFTDYWVSWVRQAPGQGLEWMGEIYPKNDVSNFNEKFKGRVTMTTDTSTSTAYMELRSLRSDDTAVYYCARQRDYWGQGTLVTVSS VL: DVVMTQSPLSLPVTLGQPASISCRSSQSLEYGSGYTYLEWYLQRPGQSPRLLIYGVSNRFSGVPDRFSGSGSGTDFTLKISRVEAEDVGVYYCFQATHDPNTFGQGTKLEIK', 10600),
  ('31D9B3 VH1.3-VL2.3 hIgG1 (antibody, V domains shown, Humanized, PTM de-risked, human IgG1; also called 31D9B3 VH1.3-VL2.3 hlgG1) VH: QVQLVQSGAEVKKPGASVKVSCKASGYTFTDYWVSWVRQAPGQGLEWMGEIYPKNQVSNFNEKFKGRVTMTTDTSTSTAYMELRSLRSDDTAVYYCARQRDYWGQGTLVTVSS VL: DVVMTQSPLSLPVTLGQPASISCRSSQSLEYGTGYTYLEWYLQRPGQSPRLLIYGVSNRFSGVPDRFSGSGSGTDFTLKISRVEAEDVGVYYCFQATHDPNTFGQGTKLEIK', 12700),
  ('31D9B3 VH1.3-VL2.2 hIgG1 (antibody, V domains shown, Humanized, PTM de-risked, human IgG1; also called 31D9B3 VH1.3-VL2.2 hlgG1) VH: QVQLVQSGAEVKKPGASVKVSCKASGYTFTDYWVSWVRQAPGQGLEWMGEIYPKNQVSNFNEKFKGRVTMTTDTSTSTAYMELRSLRSDDTAVYYCARQRDYWGQGTLVTVSS VL: DVVMTQSPLSLPVTLGQPASISCRSSQSLEYGDRYTYLEWYLQRPGQSPRLLIYGVSNRFSGVPDRFSGSGSGTDFTLKISRVEAEDVGVYYCFQATHDPNTFGQGTKLEIK', 24100),
  ('31D9B3 VH1.2-VL2 hIgG1 (antibody, V domains shown, Humanized, PTM de-risked (VH G55D), human IgG1; also called 31D9B3 VH1.2-VL2 hlgG1) VH: QVQLVQSGAEVKKPGASVKVSCKASGYTFTDYWVSWVRQAPGQGLEWMGEIYPKNDVSNFNEKFKGRVTMTTDTSTSTAYMELRSLRSDDTAVYYCARQRDYWGQGTLVTVSS VL: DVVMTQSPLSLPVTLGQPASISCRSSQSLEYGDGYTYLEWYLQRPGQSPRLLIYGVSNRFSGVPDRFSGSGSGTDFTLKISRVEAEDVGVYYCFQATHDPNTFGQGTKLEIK', 26800),
  ('xi31D9B3 hIgG1 (antibody, V domains shown, Murine variable domains in human chimeric format, human IgG1; also called xi31D9B3 hlgG1; 31D9B3 hlgG1) VH: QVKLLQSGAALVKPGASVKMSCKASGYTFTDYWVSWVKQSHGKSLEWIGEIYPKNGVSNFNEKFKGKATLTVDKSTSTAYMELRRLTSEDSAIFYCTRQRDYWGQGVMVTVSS VL: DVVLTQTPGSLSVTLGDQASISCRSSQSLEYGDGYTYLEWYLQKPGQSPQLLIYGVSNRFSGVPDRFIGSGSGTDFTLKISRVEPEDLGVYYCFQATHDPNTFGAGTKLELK', 26200);
